target: MASP-2 CCP2-SP (Homo sapiens (Human)); experiment: MASP-2 co-crystallization, X-ray crystallography and structure analysis (H-bonds, van der Waals contacts); details: Table A4-1; element CA2
Structures can show the parent of a compound that is named as a salt.
Recorded Ligand-pharmacophore element distance, pharmacophore element CA2, one value per entry.
Lab note: jot down the number only; don't add units.

Example entries begin here.
[
  {
    "compound": "Cc1nc(N)ccc1CNC(=O)[C@H](C)NC(=O)[C@H]1C[C@H](Cc2ccc(-c3ccccc3)cc2)CN1",
    "observed-result": 0.8
  },
  {
    "compound": "Cc1nc(N)ccc1CNC(=O)[C@H](C)NC(=O)[C@H]1C[C@H](Cc2cccc(Cl)c2)CN1.Cl.Cl [1328_3]",
    "observed-result": 0.48
  },
  {
    "compound": "C[C@H](NC(=O)[C@H]1C[C@@H](c2ccccc2)CCN1)C(=O)NCc1cc(Cl)ccc1O.Cl [1078_16]",
    "observed-result": 0.49
  },
  {
    "compound": "C[C@H](NC(=O)[C@H]1C[C@@H](c2ccccc2)CCN1)C(=O)NCc1cc(Cl)ccc1O.Cl [1078_8]",
    "observed-result": 0.92
  },
  {
    "compound": "Cc1nc(N)ccc1CNC(=O)[C@H](C)NC(=O)[C@H]1C[C@@H](c2cccc3ccccc23)CCN1.Cl.Cl [1297_2]",
    "observed-result": 0.22
  }
]

With MASP-2 CCP2-SP (Homo sapiens (Human)) as the test system, provide measured Ligand-pharmacophore element distance, pharmacophore element CA2 for this compound: C[C@H](NC(=O)[C@H](N)CCc1ccccc1)C(=O)NCc1ccc(C(=N)N)cc1
0.33

With MASP-2 CCP2-SP (Homo sapiens (Human)) as the test system, provide measured Ligand-pharmacophore element distance, pharmacophore element CA2 for this compound: Cc1cccc([C@H]2CN[C@@H](C(=O)N[C@@H](C)C(=O)NCc3ccc(N)nc3C)C2)c1 [compound 1257, Dihydrochloride]
0

----------
biological target: MASP-2 CCP2-SP (Homo sapiens (Human), UniProt O00187); assay: MASP-2 co-crystallization, X-ray crystallography and structure analysis (H-bonds, van der Waals contacts); design: unit not given beside the values; details: Table A2-13; MASP-2 GLY 656 C
Sequence (O00187 445-686): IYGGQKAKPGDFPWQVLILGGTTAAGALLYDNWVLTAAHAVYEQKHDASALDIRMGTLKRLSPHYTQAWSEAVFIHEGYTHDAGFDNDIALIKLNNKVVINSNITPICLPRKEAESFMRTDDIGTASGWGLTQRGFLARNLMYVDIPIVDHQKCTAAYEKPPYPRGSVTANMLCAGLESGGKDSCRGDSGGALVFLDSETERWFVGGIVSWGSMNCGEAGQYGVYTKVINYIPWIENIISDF
Sequence (O00187 364-432 partner): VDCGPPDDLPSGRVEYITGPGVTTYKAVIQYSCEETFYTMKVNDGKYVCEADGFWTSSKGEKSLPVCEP
Recorded van der Waals contact distance GLY 656 atom C, one value per entry.
Lab note: jot down the number only; don't add units.

Example entries begin here.
[
  {
    "molecule": "CNC(=O)c1ccc2c(=O)n(Cc3ccccc3)c(=O)n(CC(=O)NCc3ccc(C(=N)N)cc3)c2c1 [compound 2018]",
    "observed-result": 3.64
  },
  {
    "molecule": "CC(=O)Nc1ccc(CCN[C@H](CCc2ccccc2)C(=O)N[C@@H](C)C(=O)NCc2ccc(C(=N)N)cc2)cc1 [compound 1345]",
    "observed-result": 3.74
  },
  {
    "molecule": "C[C@H](NC(=O)[C@H](N)CCc1ccccc1)C(=O)NCc1ccc(N)nc1 [compound 1007]",
    "observed-result": 3.74
  }
]

Shift focus to the following entry.
Give van der Waals contact distance GLY 656 atom C for the following molecule: C[C@H](NC(=O)C1C[C@@H](c2ccccc2)CCN1)C(=O)NCc1ccc(C(=N)N)cc1 (stereo in doubt) [compound 1063]
3.36

----------
target: MASP-2 CCP2-SP (Homo sapiens (Human)); test: MASP-2 co-crystallization, X-ray crystallography and structure analysis (H-bonds, van der Waals contacts); conditions: Table A7-1; between pharmacophore elements of the bound compound
Where a name gives a salt, the structure may show the parent alone.
readout-label: Pharmacophore torsion angle a(H4, O1, O2, N2)
Lab note: jot down the number only; don't add units.

Example entries begin here.
[
  {
    "compound": "Cc1nc(N)ccc1CNC(=O)[C@H](C)NC(=O)[C@H]1C[C@@H](c2ccccc2)CCN1CCC(=O)O [compound 1411, Trifluoroacetate salt]",
    "observed-result": 137.13
  },
  {
    "compound": "C[C@H](NC(=O)[C@@H](CCc1ccccc1)NCc1ccc(C(=O)N2CCOCC2)cc1)C(=O)NCc1ccc(C(=N)N)cc1.Cl.Cl",
    "observed-result": 133.70
  },
  {
    "compound": "Cc1nc(N)ccc1CNC(=O)[C@H](C)NC(=O)[C@H]1C[C@H](Cc2ccccc2-c2ccccc2)CN1 [compound 1373, Di-trifluoroacetate salt]",
    "observed-result": 139.02
  },
  {
    "compound": "Cc1nc(N)ccc1CNC(=O)[C@H](C)NC(=O)[C@H]1C[C@@H](Cc2ccccc2)CCN1",
    "observed-result": 136.30
  },
  {
    "compound": "C[C@H](NC(=O)[C@H]1C[C@@H](c2ccccc2)CCN1)C(=O)NCc1cc(Cl)ccc1O.Cl [1078_9]",
    "observed-result": "−110.81"
  }
]

Shift focus to the following entry.
With MASP-2 CCP2-SP (Homo sapiens (Human)) as the test system, provide measured Pharmacophore torsion angle a(H4, O1, O2, N2) for this compound: Cc1nc(N)ccc1CNC(=O)[C@H](C)NC(=O)[C@H]1C[C@H](Cc2ccccc2Br)CN1.O=C(O)C(F)(F)F.O=C(O)C(F)(F)F [1372_A]
136.36

----------
molecular target: MASP-2 CCP2-SP (Homo sapiens (Human), UniProt O00187); experiment: MASP-2 co-crystallization, X-ray crystallography and structure analysis (H-bonds, van der Waals contacts); conditions: Table A5-2 pharmacophore distance, S3/S4 region
Where a name gives a salt, the structure may show the parent alone.
Recorded d(N2,CA2), one value per entry.
Lab note: jot down the number only; don't add units.

Example entries begin here.
[
  {
    "compound": "Cc1nc(N)ccc1CNC(=O)[C@H](C)NC(=O)[C@H]1C[C@H](Cc2cccc(Cl)c2)CN1.Cl.Cl [1328_4]",
    "study-system": "MASP-2 CCP2-SP (Homo sapiens (Human), UniProt O00187)",
    "readout-label": "d(N2,CA2)",
    "observed-result": 6.17
  },
  {
    "compound": "CC(NC(=O)C(CCc1ccccc1)NCCCc1ccc(O)cc1)C(=O)NCc1ccc(C(=N)N)cc1.Cl.Cl (stereo not drawn)",
    "study-system": "MASP-2 CCP2-SP (Homo sapiens (Human), UniProt O00187)",
    "readout-label": "d(N2,CA2)",
    "observed-result": 5.91
  },
  {
    "compound": "C[C@H](NC(=O)[C@H]1C[C@@H](c2ccccc2)CCN1)C(=O)NCc1cc(Cl)ccc1O.Cl [1078_5]",
    "study-system": "MASP-2 CCP2-SP (Homo sapiens (Human), UniProt O00187)",
    "readout-label": "d(N2,CA2)",
    "observed-result": 5.65
  },
  {
    "compound": "Cc1nc(N)ccc1CNC(=O)[C@H](C)NC(=O)[C@H]1C[C@@H](c2cccc3ccccc23)CCN1.Cl.Cl [1297_2]",
    "study-system": "MASP-2 CCP2-SP (Homo sapiens (Human), UniProt O00187)",
    "readout-label": "d(N2,CA2)",
    "observed-result": 5.78
  },
  {
    "compound": "Cc1nc(N)ccc1CNC(=O)[C@H](C)NC(=O)[C@H]1C[C@H](Cc2ccc3ccccc3c2)CN1",
    "study-system": "MASP-2 CCP2-SP (Homo sapiens (Human), UniProt O00187)",
    "readout-label": "d(N2,CA2)",
    "observed-result": 6.05
  },
  {
    "compound": "C[C@H](NC(=O)[C@H](N)CCCc1ccccc1)C(=O)NCc1ccc(C(=N)N)cc1.Cl.Cl [1042_2]",
    "study-system": "MASP-2 CCP2-SP (Homo sapiens (Human), UniProt O00187)",
    "readout-label": "d(N2,CA2)",
    "observed-result": 7.44
  }
]

Give d(N2,CA2) for the following compound: Cc1nc(N)ccc1CNC(=O)[C@H](C)NC(=O)[C@H]1C[C@H](Cc2cccc(Cl)c2)CN1.Cl.Cl [1328_2]
5.92

Give d(N2,CA2) for the following compound: N=C(N)c1ccc(CNC(=O)C(CF)NC(=O)[C@H](N)CCc2ccccc2)cc1 (stereo partly drawn) [compound 1050, Dihydrochloride]
5.73

Give d(N2,CA2) for the following compound: CC(NC(=O)C1CC(Cc2ccccc2)CN1)C(=O)NCc1cnc2c(c1)c(Cl)cn2C.Cl.Cl (stereo not drawn) [1450_B]
6.07

Give d(N2,CA2) for the following compound: C[C@H](NC(=O)[C@H]1C[C@@H](c2ccccc2)CN1)C(=O)NCc1ccc2c(N)nccc2c1.Cl.Cl
5.10

Give d(N2,CA2) for the following compound: Cc1nc(N)ccc1CNC(=O)C(C)NC(=O)[C@H]1C[C@H](c2cccc(-c3ccccc3)c2)CN1 (stereo in doubt)
8.32

Give d(N2,CA2) for the following compound: C[C@H](NC(=O)[C@H]1C[C@@H](c2ccccc2)CCN1)C(=O)NCc1cc(Cl)ccc1O.Cl [1078_9]
5.71

Give d(N2,CA2) for the following compound: Cc1nc(N)ccc1CNC(=O)[C@H](C)NC(=O)[C@H]1C[C@H](Cc2ccccc2Br)CN1.O=C(O)C(F)(F)F.O=C(O)C(F)(F)F [1372_A]
5.99

Give d(N2,CA2) for the following compound: C[C@H](NC(=O)[C@H]1C[C@@H](c2ccccc2)CCN1)C(=O)NCc1cc(Cl)ccc1O.Cl [1078_6]
5.49

Give d(N2,CA2) for the following compound: C[C@H](NC(=O)[C@H](N)CCc1cccc(Cl)c1)C(=O)NCc1ccc(C(=N)N)cc1
6.05

Reference source: patent US12195427B2
